# Target: T1, HER3 extracellular domain recombinant protein (human, UniProt P21860 20-643)
# T1 construct: extracellular domain; also called HER3 extracellular domain protein; HER3 protein
# T1 sequence (P21860 20-643): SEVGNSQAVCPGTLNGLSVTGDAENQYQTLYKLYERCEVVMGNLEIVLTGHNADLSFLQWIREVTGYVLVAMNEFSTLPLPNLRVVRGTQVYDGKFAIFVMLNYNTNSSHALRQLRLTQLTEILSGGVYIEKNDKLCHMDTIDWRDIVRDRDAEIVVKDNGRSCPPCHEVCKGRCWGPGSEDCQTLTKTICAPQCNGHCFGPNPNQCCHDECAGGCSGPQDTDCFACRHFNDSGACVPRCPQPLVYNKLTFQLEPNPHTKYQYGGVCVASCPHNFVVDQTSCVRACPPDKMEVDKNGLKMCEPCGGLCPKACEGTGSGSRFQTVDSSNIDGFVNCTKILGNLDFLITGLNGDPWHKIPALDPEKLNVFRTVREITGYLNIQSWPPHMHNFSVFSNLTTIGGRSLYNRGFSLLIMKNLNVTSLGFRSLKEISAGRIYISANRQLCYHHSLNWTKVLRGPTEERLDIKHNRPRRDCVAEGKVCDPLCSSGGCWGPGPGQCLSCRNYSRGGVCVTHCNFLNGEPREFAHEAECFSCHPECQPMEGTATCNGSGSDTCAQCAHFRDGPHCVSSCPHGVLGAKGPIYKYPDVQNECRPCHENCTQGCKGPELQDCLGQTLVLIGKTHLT
# Test Name: SPR, ProteOn XPR36; antibody captured by goat anti-human antibody, HER3 extracellular domain 1.25-20 nM as analyte, Langmuir model
Measured Metric: kon (M⁻¹ s⁻¹)
All answers are understood in M⁻¹ s⁻¹, so give the number only.

{"Binder": "humanized antibody with VH1 back mutation (antibody, V domains shown) VH: EVQLVQSGAEVKKPGSSVKVSCKASGGTFSNYWIDWVRQAPGQGLEWMGEILPGSGGTDYNEKFKGRVTITADTSTSTAYMELSSLRSEDTAVYYCARDDYDVFAYWGQGTLVTVSS VL: DIVMTQSPGTLSLSPGERATLSCRSSKSLLHSNGITYLYWYQQKPGQAPRLLIYQMSNLASGIPDRFSGSGSGTDFTLTISRLEPEDFAVYYCAQNLELPWTFGQGTKVEIKR", "Measured Metric": "kon", "Reading": 418000}
{"Binder": "humanized antibody with VH25 back mutation (antibody, V domains shown) VH: QVQLVQSGAEVKKPGSSVKVSCKATGGTFSNYWIDWVRQAPGQGLEWMGEILPGSGGTDYNEKFKGRVTITADTSTSTAYMELSSLRSEDTAVYYCARDDYDVFAYWGQGTLVTVSS VL: DIVMTQSPGTLSLSPGERATLSCRSSKSLLHSNGITYLYWYQQKPGQAPRLLIYQMSNLASGIPDRFSGSGSGTDFTLTISRLEPEDFAVYYCAQNLELPWTFGQGTKVEIKR", "Measured Metric": "kon", "Reading": 525000}
{"Binder": "humanized antibody with VH76 back mutation (antibody, V domains shown) VH: QVQLVQSGAEVKKPGSSVKVSCKASGGTFSNYWIDWVRQAPGQGLEWMGEILPGSGGTDYNEKFKGRVTITADTSSSTAYMELSSLRSEDTAVYYCARDDYDVFAYWGQGTLVTVSS VL: DIVMTQSPGTLSLSPGERATLSCRSSKSLLHSNGITYLYWYQQKPGQAPRLLIYQMSNLASGIPDRFSGSGSGTDFTLTISRLEPEDFAVYYCAQNLELPWTFGQGTKVEIKR", "Measured Metric": "kon", "Reading": 531000}

Measured kon of humanized antibody h1044-0 (antibody, V domains shown, also called humanized h1044-0 antibody after CDR transplantation) VH: QVQLVQSGAEVKKPGSSVKVSCKASGGTFSNYWIDWVRQAPGQGLEWMGEILPGSGGTDYNEKFKGRVTITADTSTSTAYMELSSLRSEDTAVYYCARDDYDVFAYWGQGTLVTVSS VL: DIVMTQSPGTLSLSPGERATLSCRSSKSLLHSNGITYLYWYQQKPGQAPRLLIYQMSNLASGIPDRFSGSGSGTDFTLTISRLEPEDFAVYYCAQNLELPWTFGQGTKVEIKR : 503000

Measured kon of 1044 human-mouse chimeric antibody (antibody, V domains shown) VH: EVQLQQSGTELMKPGASVKISCKATGGTFSNYWIDWVKQRPGHGLEWIGEILPGSGGTDYNEKFKGKATFTADTSSNTAYMQLSSLTSEDSAVYYCARDDYDVFAYWGQGTLVTVSA VL: DIVMTQAAFSNPVTLGTSASISCRSSKSLLHSNGITYLYWYLQKPGQSPQLLIYQMSNLASGVPDRFSSSGSGTDFTLRISRVEAEDVGVYYCAQNLELPWTFGGGTKLEIKR : 874000

Measured kon of humanized antibody with VH77 back mutation (antibody, V domains shown) VH: QVQLVQSGAEVKKPGSSVKVSCKASGGTFSNYWIDWVRQAPGQGLEWMGEILPGSGGTDYNEKFKGRVTITADTSTNTAYMELSSLRSEDTAVYYCARDDYDVFAYWGQGTLVTVSS VL: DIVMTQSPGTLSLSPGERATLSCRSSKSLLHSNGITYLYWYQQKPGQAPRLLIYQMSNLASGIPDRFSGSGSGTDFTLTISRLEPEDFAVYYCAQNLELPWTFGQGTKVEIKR : 463000
